I'd appreciate it if you could supply pIC50 values for the items below.
# Target of assay: HDAC2 Human recombinant C-terminal FLAG-tag (Homo sapiens, UniProt Q92769)
# Construct: FLAG (C); purchased BPS Bioscience 50052
# Sequence (Q92769 whole entry): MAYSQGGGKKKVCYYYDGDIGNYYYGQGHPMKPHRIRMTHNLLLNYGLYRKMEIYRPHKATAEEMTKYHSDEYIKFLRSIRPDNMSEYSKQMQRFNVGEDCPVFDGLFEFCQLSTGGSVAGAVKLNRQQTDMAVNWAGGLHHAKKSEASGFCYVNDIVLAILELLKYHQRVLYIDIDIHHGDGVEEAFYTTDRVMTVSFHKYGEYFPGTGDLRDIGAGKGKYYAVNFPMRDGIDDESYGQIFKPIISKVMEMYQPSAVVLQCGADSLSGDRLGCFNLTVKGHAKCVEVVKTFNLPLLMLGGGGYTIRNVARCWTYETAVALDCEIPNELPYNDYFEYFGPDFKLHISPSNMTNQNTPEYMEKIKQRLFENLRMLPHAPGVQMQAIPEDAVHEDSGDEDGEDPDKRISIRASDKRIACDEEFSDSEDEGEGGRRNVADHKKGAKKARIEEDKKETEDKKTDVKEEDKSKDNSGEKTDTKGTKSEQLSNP
# Method description: Measurement of HDAC2 enzyme inhibitory activity (HTRF)
# Type: biochemical
# Condition details: recombinant HDAC2, H3K9ac peptide, 3 hours room temperature; read-out: HDAC2 IC50
Give bare numbers, as −log10 of the molar value.

Previously resolved entries follow.
> print(dat)
                           molecular.string  reported.value
1  CN(C)c1cnc(C(=O)Nc2cc(-c3ccc(F)nc3)ccc2N)cn1            7.34
2  CC(C)Nc1cnc(C(=O)Nc2cc(-c3ccc(F)nc3)ccc2N)cn1            7.40
3  CN(C)c1cnc(C(=O)Nc2cc(-c3cncs3)ccc2N)cn1            7.22
4  Nc1ccc(-c2cncs2)cc1NC(=O)c1ccc(C2CC2)cn1            7.04

Per the record, Cn1cc(-c2cnc(C(=O)Nc3cc(-n4cccc4)ccc3N)cn2)cn1 has pIC50 of 7.00
